experiment: in vitro; details: human, hela cells, % viability
Known viability at 28.5 h, 10 µM of a selection of molecules
Write it as a number; the unit % goes unstated.

1. Clc1ccc(CN2CCc3ccccc3C2)cc1Cl	103
2. CCn1cncc1CN1CCCC(c2cc3cccnc3[nH]2)C1 (centres unmarked)	98.5

Indicate the recorded viability at 28.5 h, 10 µM value for this molecule: "Cc1nn(C)cc1-c1cncn1CCn1nc(C)c(C)c1C"
108

Indicate the recorded viability at 28.5 h, 10 µM value for this molecule: O=C(O)C1CCCCC1c1nnc(S)[nH]1 (centres unmarked)
96.4

---

Known viability at 28.5 h, 10 µM of a selection of compounds
test: in vitro; conditions: human, hela cells, % viability
Write it as a number; the unit % goes unstated.

1. CN(C)c1ncc(CNc2nc(O)c3c(n2)CCCC3)cn1	89.3
2. O=C(NNC(=O)C(O)c1ccccc1)NC1CCCCC1 (stereo not drawn)	106
3. O=C(CCc1nc(-c2ccccc2F)no1)Nc1ccccc1[N+](=O)[O-]	86.9
4. c1ccc(C(Oc2nccnc2-c2ccc3c(c2)OCO3)c2ccccc2)cc1	103
5. Cc1cccc(-c2csc3c(=O)[nH]c(N4CCC(C(=O)NCCc5cccnc5)CC4)nc23)c1	94

Indicate the recorded viability at 28.5 h, 10 µM value for this compound: "Cc1nc2c(c(CCC(=O)O)n1)CCCC2"
98.4

Indicate the recorded viability at 28.5 h, 10 µM value for this compound: "CCOC(=O)c1sc(-c2ccc(C(C)(C)C)cc2)nc1O"
92.3

Indicate the recorded viability at 28.5 h, 10 µM value for this compound: "CC(C)C(=O)Nc1cc2ccccc2c(-c2ccc(N(C)C)cc2)n1"
90.6

Indicate the recorded viability at 28.5 h, 10 µM value for this compound: O=C(O)C(c1c[nH]c2cc(F)ccc12)N1CCN(c2ccccc2)CC1 (stereo not drawn)
102

Indicate the recorded viability at 28.5 h, 10 µM value for this compound: "CCOc1cc(C)c(Cl)cc1S(=O)(=O)NCc1ccncc1"
85.8

Indicate the recorded viability at 28.5 h, 10 µM value for this compound: CC(N(C)S(=O)(=O)c1ccc(-n2ncc(Cl)c(Cl)c2=O)cc1)C(C)(C)C (stereo not drawn)
73.9

Indicate the recorded viability at 28.5 h, 10 µM value for this compound: COc1ccc(OC)c(C2CC(c3ccc(NS(C)(=O)=O)cc3)=NN2C(=O)CCC(=O)O)c1 (stereo not drawn)
107
